target_desc: Bcl-xL, Q07817
Sequence (Q07817 1-209): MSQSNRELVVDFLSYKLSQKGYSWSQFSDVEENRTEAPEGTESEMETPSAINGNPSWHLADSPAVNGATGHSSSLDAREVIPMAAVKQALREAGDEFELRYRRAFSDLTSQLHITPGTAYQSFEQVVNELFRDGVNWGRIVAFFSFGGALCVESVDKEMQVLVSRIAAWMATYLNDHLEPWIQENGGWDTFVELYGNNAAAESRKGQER
test_description: peptide SPOT array, c-Myc-tagged receptor at 1 uM or 100 nM, anti-c-Myc-Cy3
measure: SPOT signal as a fraction of Bim BH3's signal on the same receptor and array

[[record]]
binder = "SMRRNAMGVGDVFEADLFTTRHISHW [DNAH10]"
obs_value = 0.12


[I] QRKHEGFERDLAALGDKVNSLGETAE [SPTAN1]
[II] CGEWTRRSLHLRVLLRQLILPTDKGV [FAM149A]
Enquiry: Given the listed items, does I or II have the lesser reported SPOT signal as a fraction of Bim BH3's signal on the same receptor and array? // output: label of the selected item
Return: I
